Item-by-item account of half-life
Assay: PK study using rats, oral administration, plasma levels by HPLC-MS/MS
Format: in vivo, Sprague–Dawley rats
Details: Sprague-Dawley; rat plasma, oral (gavage) 25 mg/kg, mean ± SD
Kindly answer with a numeric value in h, unit omitted.

INSERT INTO assay_data (molecule, observed) VALUES
  ('Cc1ccc(CC2CCC3C4CCCN5CCCC(CN3C2=O)C45)cc1 (centres unmarked) [4MBM, 14-(4-methylbenzyl)matrine]', 4.92);

The molecule identified as Cc1cccc(CC2CCC3C4CCCN5CCCC(CN3C2=O)C45)c1 (centres unmarked) [3MBM, 14-(3-methylbenzyl)matrine] registered its half-life at 4.97
